Just for reference, PubChem BioAssay is where these values come from.

- System: Chordin-like protein 2 (CHRDL2)
- method-summary: compounds binding chordin-like 2 – biochemical, small-molecule microarray, 635 nm fluorescence, primary screen (AID 1126);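 also: printed compound slides probed with Chrdl2 protein at 4 µg/mL for 1 h at 4 C; score merges 667 nm emission intensity with signal to noise over three replicate slides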
- condition-parameters: fluorescence 635 nm, higher = more signal
If the reported composite z-score equals or exceeds 0.5, assign rule met. If not, assign rule not met.

A selection of reference data follows.
[[record]]
compound = "COc1ccc(CCNC(=O)[C@@]2(c3ccc([N+](=O)[O-])cc3)CC(=O)N(C3CCCCC3)[C@@H]2c2ccc(CO)cc2)cc1"
measured_on = "Chordin-like protein 2 (CHRDL2)"
label = "rule not met"

[[record]]
compound = "COC(=O)c1c(CC[C@@H](CO)NC(=O)N[C@@H](C)Cn2cc(-c3ccccn3)nn2)oc(C(C)=O)c1C(=O)OC"
measured_on = "Chordin-like protein 2 (CHRDL2)"
label = "rule not met"

[[record]]
compound = "COc1ccc([Si](C)(C)[C@H]2[C@H](CC(=O)N3CCC[C@H]3CO)O[C@@]3(C(=O)N(Cc4ccc(N5CCOC5=O)cc4)c4ccccc43)[C@@H]2C)cc1"
measured_on = "Chordin-like protein 2 (CHRDL2)"
label = "rule met"


Identify whether the reported composite z-score of the following compound is 0.5 or greater: CCCCC[C@H]1OC[C@@]23C=C(Br)[C@@H](CC12)[C@@]1(CO1)C3=O (stereo partly drawn)
rule not met

Identify whether the reported composite z-score of the following compound is 0.5 or greater: NC(=O)NCC#Cc1ccc2c(c1)[C@]1(C(=O)N2)[C@H](c2ccccc2OCCO)N2[C@H](c3ccccc3)[C@H](c3ccccc3)OC(=O)[C@H]2[C@@H]1C(=O)O
rule not met

Identify whether the reported composite z-score of the following compound is 0.5 or greater: CCCC1(C(=O)OC)C=C2C(=C(C)C(=O)C2C)CN1 (stereo not drawn)
rule not met

Identify whether the reported composite z-score of the following compound is 0.5 or greater: CCCCNC(=O)c1ccc(C#CC(C)(C)C)c(OC(C)=O)c1
rule met

* * *

- method-summary: probe aXIP binding to arrayed compounds – biochemical, NeuroSMM set, 635/667 nm fluorescence, primary screen (AID 1119);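 also: probe is the protein aXip251-270 applied at 1 µg/mL to compound-printed slides; binding of probe to printed compounds measured as 667 nm fluorescence plus signal to noise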
- condition-parameters: small-molecule microarray, higher = more signal, called active from +8 up or from −8 down
property-label: composite Z-score
Form: value (number only, do not type unit).

[[record]]
compound = "Cc1ccc(S[C@]2(C(=O)NCc3ccccc3)CC(=O)N(C3CCCCC3)[C@@H]2c2ccc(CO)cc2I)cc1"
reported_result = -0.0202


Record COc1cc2c(cc1O)C(c1ccc(CN3CCCC3)cc1)N(Cc1cc3c(cc1Br)OCO3)CC2 (stereo not given) . Reported composite Z-score: 0.0698

Record COc1ccc([Si](C)(C)[C@@H]2[C@@H](CC(=O)N(CCO)Cc3ccccc3)O[C@]3(C(=O)N(Cc4cccc(N5CCCCC5=O)c4)c4ccccc43)[C@H]2C)cc1 . Reported composite Z-score: 0.42

Record COC(=O)C(CC#Cc1ccc2c(c1)[C@]1(C(=O)N2)[C@H](c2ccc(O)cc2)N2[C@H](c3ccccc3)[C@H](c3ccccc3)OC(=O)[C@H]2[C@@H]1C(=O)NC[C@H](O)c1ccccc1)C(=O)OC . Reported composite Z-score: 0.564

Record CC[C@@H]1O[Si](C(C)C)(C(C)C)c2c1cc(-c1cc(C)c(OC)c(C)c1)nc2-c1ccc(Oc2ccccc2)cc1 . Reported composite Z-score: -0.837
